Task for the reader: assign each of the following binders its reported Kd.
# TARGET: T1, recombinant human CD33 protein (Sino Biologicals) (human, UniProt P20138 18-259)
# T1 construct: Bought protein; also called recombinant CD33
# T1 sequence (P20138 18-259 limits assumed): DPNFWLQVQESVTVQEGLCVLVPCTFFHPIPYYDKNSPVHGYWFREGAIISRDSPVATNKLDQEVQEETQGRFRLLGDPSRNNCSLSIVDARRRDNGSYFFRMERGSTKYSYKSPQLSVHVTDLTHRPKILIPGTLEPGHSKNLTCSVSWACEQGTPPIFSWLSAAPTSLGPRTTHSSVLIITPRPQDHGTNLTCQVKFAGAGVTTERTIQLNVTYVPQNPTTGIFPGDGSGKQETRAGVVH
# MEASUREMENT DESCRIPTION: BLI (ForteBio), antibody on anti-human Fc sensor, CD33 10 nM
Numbers only, in nM.

Use the examples below as a reference point.
anti-CD33 antibody 6C7H14 (antibody, V domains shown, VH/VL only) VH: EVQLVESGGGLVQPGGSLRLSCAGSGFTFSNYAMNWVRQAPGKGLEWVAEIRLKSNNYVTNYAASVKGRFTISRDDSKNSVYLQMNSLKTEDTGVYYCTRAGYYVPFAYWGQGTLVTVSS VL: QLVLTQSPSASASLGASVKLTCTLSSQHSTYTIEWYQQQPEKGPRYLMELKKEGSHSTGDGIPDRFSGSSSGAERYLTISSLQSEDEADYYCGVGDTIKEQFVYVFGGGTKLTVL = 0.805
anti-CD33 antibody 6C7H30 (antibody, V domains shown, VH/VL only) VH: EVQLVESGGGLVQPGGSLRLSCAGSGFTFSNYWMNWVRQAPGKGLEWVAEIRLKSNNYVTNYAASVKGRFTISRDDSKNSVYLQMNSLKTEDTGVYYCTRAGYYVPFAYWGQGTLVTVSS VL: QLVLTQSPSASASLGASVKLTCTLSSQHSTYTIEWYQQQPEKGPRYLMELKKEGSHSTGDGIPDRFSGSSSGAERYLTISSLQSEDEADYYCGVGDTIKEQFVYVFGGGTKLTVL = 1.27

API: the following record is the query input.
[Q] So what does the record say about Kd for anti-CD33 antibody 6C7H18 (antibody, V domains shown, VH/VL only) VH: EVQLVESGGGLVQPGGSLRLSCAGSGFTFSNYHMNWVRQAPGKGLEWVAEIRLKSNNYVTNYAASVKGRFTISRDDSKNSVYLQMNSLKTEDTGVYYCTRAGYYVPFAYWGQGTLVTVSS VL: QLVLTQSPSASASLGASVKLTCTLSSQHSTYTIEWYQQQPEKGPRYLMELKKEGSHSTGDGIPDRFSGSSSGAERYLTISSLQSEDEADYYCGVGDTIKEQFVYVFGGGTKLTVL ?
[A] 0.609
